MEASUREMENT_TARGET: T1, mArtemin-MMH (mouse)
T1 construct: also called msArtemin-MMH; msARTN.mmh
T1 chain: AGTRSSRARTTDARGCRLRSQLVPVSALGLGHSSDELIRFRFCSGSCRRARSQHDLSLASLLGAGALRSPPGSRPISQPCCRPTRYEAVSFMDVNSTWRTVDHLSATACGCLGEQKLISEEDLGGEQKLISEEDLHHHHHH
TEST_SUMMARY: BLI (Octet HTX), mAb captured on AHC tips, artemin at 15 nM, 25 C
PARAMETER: Artemin Binding Response (nm)
Include the unit right after the number.

Form: binder = H4H33335P (antibody, human IgG4 S228P, kappa, V domains shown, Fully human antibody; also called Artemin mAb; anti-ARTN antibody) VH: EVQLVESGGGLVQPGGSLRLSCAASGFTFSSYDMHWVRQATGKGLEWVSTIDTAGDTYYPGSVKGRFTISRENAKNSLYLQMNSLRAGDTAVYYCARDGELELQGYFDLWGRGTLVTVSS VL: DIQMTQSPSSLSASVGDRVTITCRASQIISIYLNWYQQKPGKAPKLLIYAASSLQSGVPSRFSGSGSGTDFTLTISSLQPEDFATYYCQQSYTTPLTFGGGTKVEIKR ; Artemin Binding Response (nm) = 0.07 nm
